The measured values listed here are drawn from patent US20260116921A1.

- ASSAY SYSTEM: T1, IL-23R (human, UniProt Q5VWK5 24-629)
- T1 sequence (looked up): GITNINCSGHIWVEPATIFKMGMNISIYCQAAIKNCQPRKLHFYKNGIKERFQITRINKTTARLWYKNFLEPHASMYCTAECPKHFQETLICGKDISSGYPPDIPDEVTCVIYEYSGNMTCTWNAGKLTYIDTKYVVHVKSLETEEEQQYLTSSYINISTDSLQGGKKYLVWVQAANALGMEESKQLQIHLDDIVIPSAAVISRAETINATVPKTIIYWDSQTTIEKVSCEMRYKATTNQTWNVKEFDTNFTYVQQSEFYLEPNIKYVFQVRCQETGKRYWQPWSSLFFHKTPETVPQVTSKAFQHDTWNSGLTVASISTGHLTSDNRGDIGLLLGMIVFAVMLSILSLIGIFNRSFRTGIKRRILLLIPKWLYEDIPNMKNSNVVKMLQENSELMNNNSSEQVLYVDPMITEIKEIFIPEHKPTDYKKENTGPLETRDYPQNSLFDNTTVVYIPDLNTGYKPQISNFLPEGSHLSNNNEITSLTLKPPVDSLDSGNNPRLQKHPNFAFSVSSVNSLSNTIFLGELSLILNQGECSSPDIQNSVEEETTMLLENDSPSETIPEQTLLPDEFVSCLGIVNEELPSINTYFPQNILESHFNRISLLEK
- EXPERIMENT NOTES: cell-based or functional assay
Bridge positions count the residues as written; N and C are the ends. Square brackets hold non-standard residues; d marks the D form. Trp(7-Me) = Cc1cccc2c(C[C@H](N)C(=O)O)c[nH]c12; 2Nal = N[C@@H](Cc1ccc2ccccc2c1)C(=O)O; AEF = NCCOc1ccc(C[C@H](N)C(=O)O)cc1; Cit = NC(=O)NCCC[C@H](N)C(=O)O; Pen = CC(C)(S)[C@H](N)C(=O)O; αMeK = C[C@](N)(CCCCN)C(=O)O; Aib = CC(C)(N)C(=O)O
Measured pStat3 HTRF (nM) IC50 of individual entries

Ac-[Pen]NT[Trp(7-Me)][Cit][Pen][AEF][2Nal][αMeK]K(Ac)N[Aib][dR]-NH2 (disulfide 1-6; SMILES CC(=O)NCCCC[C@H](NC(=O)[C@](C)(CCCCN)NC(=O)[C@H](Cc1ccc2ccccc2c1)NC(=O)[C@H](Cc1ccc(OCCN)cc1)NC(=O)[C@H]1NC(=O)[C@H](CCCNC(N)=O)NC(=O)[C@H](Cc2c[nH]c3c(C)cccc23)NC(=O)[C@H]([C@@H](C)O)NC(=O)[C@H](CC(N)=O)NC(=O)[C@@H](NC(C)=O)C(C)(C)SSC1(C)C)C(=O)N[C@@H](CC(N)=O)C(=O)NC(C)(C)C(=O)N[C@H](CCCNC(=N)N)C(N)=O) [SEQ ID NO: 345] : < 1 nM

query: Reported pStat3 HTRF (nM) IC50 for XNTXQXXXXKXX (Ac-[Pen]-NT-[W(7-Me)]-Q-[Pen]-Phe[4-(2-aminoethoxy)]-[2-Nal]-[a-MeLeu]-[Lys(Ac)]-[N-MeAla]-[bA]-NH2; Pen-Pen disulfide) [SEQ ID NO: 223] : what is it?
result: > 100 nM

query: Please give the measured pStat3 HTRF (nM) IC50 for this binder: Ac-[Pen]NT[Trp(7-Me)][Cit][Pen][AEF][2Nal][αMeK]K(Ac)NS-NH2 (disulfide 1-6 (inferred)) [SEQ ID NO: 260]
result: < 1 nM

query: Dear colleague, I am looking for the recorded pStat3 HTRF (nM) IC50 of the following binder: XNTXQXXXXKNX (Ac-[Pen]-N-T-[W(7-Me)]-Q-[Pen]-Phe[4-(2-aminoethoxy)]-[2-Nal]-[DiethylGly]-[Lys(Ac)]-N-[bA]-NH2; Pen-Pen disulfide) [SEQ ID NO: 276]
result: < 1 nM

query: Can you look up the measured pStat3 HTRF (nM) IC50 of Ac-[Pen]NT[Trp(7-Me)][Cit][Pen][AEF][2Nal][αMeK]K(Ac)N[dY]-NH2 (disulfide 1-6 (inferred)) [SEQ ID NO: 259] for me?
result: < 1 nM

query: Item under review: XNTXKXXXXKNX (Ac-[Pen]-NT-[W(7-Me)]-[Lys(Ac)]-[Pen]-Phe[4-(2-aminoethoxy)]-[2-Nal]-[a-MeLys]-[Lys(Ac)]-N-[Cit]-NH2; Pen-Pen disulfide) [SEQ ID NO: 249] . Reported pStat3 HTRF (nM) IC50?
result: < 1 nM
